Assay summary: In vitro maximal vasorelaxing effect evoked on endothelium-denuded rat aortic rings was expressed as percentage contractile tension in the presence of 60 mM KCl
Condition details: Aorta
Exercise: state measured Emax for each of the compounds provided.
Answers are plain numbers, in %.

# Compound, Emax (%)
data = [
    ("CC1(C)CN(C2=CCCC2=O)c2cc(C#N)ccc2S1", 18),
    ("CC1(C)CN(C2=CCCC2=O)c2cc(Br)ccc2S1", 28),
]

Your task in this section: give Emax for each listed record.
1. CC(=O)NN1CC(C)(C)Sc2ccc([N+](=O)[O-])cc21
2. CC1(C)CN(NC(=O)c2cccc(F)c2)c2cc([N+](=O)[O-])ccc2S1
3. CC1(C)CN(N2CCCC2=O)c2cc(Br)ccc2S1
4. CC1(C)CN(C2=CCCC2=O)c2cc([N+](=O)[O-])ccc2S1
5. CC1(C)CN(C2=CCCC2=O)c2cc(C(F)(F)F)ccc2S1

Output:
1: 24; 2: 15; 3: 30; 4: 26; 5: 35

====

Assay summary: In vitro vasorelaxing effect evoked on endothelium-denuded rat aortic rings in the presence of 1 uM glibenclamide
Condition details: Aorta
Assay endpoint: pIC50
Give bare numbers, as −log10 of the molar value.

Input: Quickly give me recorded pIC50 for CC1(C)CN(C2=CCCC2=O)c2cc(Br)ccc2S1
Output: 6.28
